molecular target: feline FcRn (FCN-F82W3, Acrobiosystems) (feline); assay: SPR Carterra, IgG coupled, pH 6.0
Collected kon values appear next to each entry.

Reference set (2 entries):
{"BINDER": "anti-NGF feline IgG1a, Fc variant S428Y, S254R (antibody, part only; not given: Anti-NGF variable domains, not shown: another chain or arm of the molecule; small tags and cut ends) Fc: PPEMLGGPSIFIFPPKPKDTLSIRRTPEVTCLVVDLGPDDSDVQITWFVDNTQVYTAKTSPREEQFNSTYRVVSVLPILHQDWLKGKEFKCKVNSKSLPSPIERTISKAKGQPHEPQVYVLPPAQEELSRNKVSVTCLIKSFHPPDIAVEWEITGQPEPENNYRTTPPQLDSDGTYFVYSKLSVDRSHWQRGNTYTCSVYHEALHSHHTQKSLTQSPGK", "REPORTED_RESULT": "552000 M⁻¹ s⁻¹"}
{"BINDER": "anti-NGF feline IgG1a, Fc variant Q311R (antibody, part only; not given: Anti-NGF variable domains, not shown: another chain or arm of the molecule; small tags and cut ends) Fc: PPEMLGGPSIFIFPPKPKDTLSISRTPEVTCLVVDLGPDDSDVQITWFVDNTQVYTAKTSPREEQFNSTYRVVSVLPILHRDWLKGKEFKCKVNSKSLPSPIERTISKAKGQPHEPQVYVLPPAQEELSRNKVSVTCLIKSFHPPDIAVEWEITGQPEPENNYRTTPPQLDSDGTYFVYSKLSVDRSHWQRGNTYTCSVSHEALHSHHTQKSLTQSPGK", "REPORTED_RESULT": "196000 M⁻¹ s⁻¹"}

Incoming: // lookup kon for anti-NGF feline IgG1a, Fc variant Q311V (antibody, part only; not given: anti-NGF variable domains, light chain, not shown: another chain or arm of the molecule; small tags and cut ends) Fc: PPEMLGGPSIFIFPPKPKDTLSISRTPEVTCLVVDLGPDDSDVQITWFVDNTQVYTAKTSPREEQFNSTYRVVSVLPILHVDWLKGKEFKCKVNSKSLPSPIERTISKAKGQPHEPQVYVLPPAQEELSRNKVSVTCLIKSFHPPDIAVEWEITGQPEPENNYRTTPPQLDSDGTYFVYSKLSVDRSHWQRGNTYTCSVSHEALHSHHTQKSLTQSPGK
Outgoing: 629000 M⁻¹ s⁻¹

These data points were gathered from patent US20250304650A1.
